Target: importin α3 (IMPα3), Arabidopsis thaliana, recombinant (Arabidopsis thaliana, UniProt O04294 1-531)
Sequence (O04294 whole entry): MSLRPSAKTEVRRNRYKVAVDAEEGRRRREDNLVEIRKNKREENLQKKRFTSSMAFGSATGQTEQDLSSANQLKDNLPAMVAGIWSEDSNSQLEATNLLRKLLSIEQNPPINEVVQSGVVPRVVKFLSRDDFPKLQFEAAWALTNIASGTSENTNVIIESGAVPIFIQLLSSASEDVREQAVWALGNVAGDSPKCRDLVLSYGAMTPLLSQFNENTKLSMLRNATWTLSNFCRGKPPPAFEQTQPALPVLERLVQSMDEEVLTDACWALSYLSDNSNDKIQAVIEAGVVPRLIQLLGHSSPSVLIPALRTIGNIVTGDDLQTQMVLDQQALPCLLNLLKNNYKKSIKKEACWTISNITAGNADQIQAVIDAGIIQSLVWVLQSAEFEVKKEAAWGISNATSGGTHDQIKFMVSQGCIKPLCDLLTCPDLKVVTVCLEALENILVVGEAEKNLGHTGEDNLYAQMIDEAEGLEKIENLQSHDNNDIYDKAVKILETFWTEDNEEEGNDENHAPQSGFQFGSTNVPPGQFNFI
Experiment: FP
Ends that are not written are not given here. * marks the point of attachment. 5‑TAMRA = 5-carboxytetramethylrhodamine, N-terminal label, CN(C)c1ccc2c(-c3ccc(C(=O)*)cc3C(=O)[O-])c3ccc(N(C)C)cc3[o+]c2c1
endpoint-name: pKd
Note on units: pKd is unitless, being -log10 of a concentration expressed in mol/L.

Problem: Look up pKd: {5‑TAMRA}-LKRYKRRL [TAMRA‐NOP‐1 (EIN2 NLS peptide, N‐terminally labeled with 5‐TAMRA)]
Solution: 5.27

The values you see were collected from paper PMC12871931.
